System: ACVR1
experimentalConditions: Compound Concentration (nM):1000;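 also: KINOMEscan scanMAX binding as percent activity remaining versus control; lower means stronger binding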
Consider the cut-off 90%. If the recorded Percent Control is strictly smaller, the label is Yes; if not, the label is No.

Example cases with answers are listed next.
| compound | measurementTarget | label |
| --- | --- | --- |
| CCS(=O)(=O)c1ccc(OC)c(Nc2ncc(-c3cccc(F)c3)o2)c1 [GW621970X] | ACVR1 | Yes |
| COc1cccc(-c2c[nH]c3c(N/N=C/c4ccncc4)ncnc23)c1 [GW814408X] | ACVR1 | Yes |
| CN(C)CCNC(=O)Nc1ccc(N(C)c2ccnc(Nc3ccc(CS(C)(=O)=O)cc3)n2)cc1.Cl [GW830900A] | ACVR1 | Yes |
| Cl.O=C(O[C@H]1CN[C@H](C#Cc2cc3ncnc(Nc4ccc5c(cnn5Cc5ccccc5)c4)c3s2)C1)N1CCOCC1 [GSK200398A] | ACVR1 | No |

API: query returns whether the compound falls strictly under 90% in Percent Control. Query: COc1ccc(COc2ccc(Cc3cnc(N)nc3N)cc2OC)cc1 [GW632580X] Yes

Request: COc1ccccc1-c1cc(/C=C2\C(=O)Nc3ncc(Br)cc32)cc(Br)c1O [GW442130X] No

Then "CCn1c(-c2nonc2N)nc2c(C#CC(C)(C)O)nc(OCCNC)cc21.Cl" ? No

Try this compound next: COc1cc2ncnc(Nc3ccc4c(cnn4Cc4ccccc4)c3)c2cc1OC.Cl [GW282449A] No

====

Test system: FRK
experimentalConditions: Compound Concentration (nM):1000
Measured Percent Control accompanies every entry in the list below.
State just the number; it will be interpreted in %.

These recorded examples may help you get a feel for the data.
| compound | Percent Control (%) |
| --- | --- |
| CC1=C(C(=O)Nc2ccc3[nH]ncc3c2)C(c2ccc(Cl)c(Cl)c2)CC(=O)N1 (centres unmarked) [GSK299115A] | 63 |
| Cl.c1ccc(Cc2nc3ccc(Nc4ncnc5ccccc45)cc3[nH]2)cc1 [GR269666A] | 100 |
| CCc1ccc(Oc2nccc(-c3c(-c4ccc(F)cc4)ncn3C3CCNCC3)n2)cc1 | 99 |
| NS(=O)(=O)c1ccc(N/N=C2\C(=O)Nc3ccc(C(=O)NCCc4c[nH]cn4)cc32)cc1 [GW300660X] | 100 |
| COc1cc(/C=N/Nc2ncnc3[nH]ncc23)ccc1O [GW578748X] | 100 |

Write down the reported Percent Control of CC(C)COC(=O)c1ccc2c(c1)/C(=C/Nc1ccc(S(N)(=O)=O)cc1)C(=O)N2 [GW416981X] , test system: FRK. 100

Can you handle COC(=O)Nc1nc2ccc(Oc3ccc(NC(=O)Nc4cc(C(F)(F)F)ccc4F)cc3)cc2s1.Cl [GW693917A] next? 15

Let us now turn to Cl.O=C(O[C@H]1CN[C@H](C#Cc2cc3ncnc(Nc4ccc5c(cnn5Cc5ccccc5)c4)c3s2)C1)N1CCOCC1 [GSK200398A] 90

====

# reported Percent Control; entries follow
Tested on: FLT4
experimentalConditions: Compound Concentration (nM):1000
Field: numeric (%). Do not append units.

| compound | Percent Control (%) |
| --- | --- |
| CN(C)c1cc2c(Nc3ccc4c(cnn4Cc4ccccc4)c3)ncnc2cn1 [GW282974X] | 100 |
| COc1cc2ncn(-c3cc(O[C@H](C)c4ccccc4Cl)c(C(N)=O)s3)c2cc1OC [GSK237701A] | 9.4 |
| Cl.c1ccc(Cc2nc3ccc(Nc4ncnc5ccccc45)cc3[nH]2)cc1 [GR269666A] | 100 |

Please turn your attention to the following entry.
Record request: Percent Control value, item COC(=O)Nc1nc2ccc(Oc3ccc(NC(=O)Nc4cc(C(F)(F)F)ccc4F)cc3)cc2s1.Cl [GW693917A] 2.4

====

System: EGFR(L858R,T790M)
experimentalConditions: Compound Concentration (nM):1000
testReadout: Percent Control (%)
Quick note: give the figure in %, leave out the unit.

| compound | Percent Control (%) |
| --- | --- |
| Cc1cc(O)cc(C)c1/C=C/c1cncc(C(N)=O)c1 [GW435821X] | 100 |

Endpoint output: Percent Control of CCS(=O)(=O)c1ccc(OC)c(Nc2ncc(-c3cccc(OC)c3)o2)c1 [GW580509X] . Value? 100

// same read-out, input: "CCc1ccc(Oc2nccc(-c3c(-c4ccc(F)cc4)ncn3C3CCNCC3)n2)cc1" 73

Please give the result for Cl.O=S1CCN(Cc2ccc(-c3ccc4ncnc(Nc5ccc(OCc6ccccc6)c(F)c5)c4c3)o2)CC1 [GW576924A] too. 100

Also check COc1cc2ncnc(Nc3ccc4c(cnn4Cc4ccccc4)c3)c2cc1OC.Cl [GW282449A] 78

For COc1ccc(COc2ccc(Cc3cnc(N)nc3N)cc2OC)cc1 [GW632580X] then? 98

Now this one: NS(=O)(=O)c1ccc(N/N=C2\C(=O)Nc3ccc(C(=O)NCCc4c[nH]cn4)cc32)cc1 [GW300660X] 99

Another: Cl.O=C(Nc1ccc(Oc2ccc3[nH]c(NC(=O)c4ccco4)nc3c2)cc1)Nc1cc(C(F)(F)F)ccc1F [GW683134A] 100

Input COc1cccc(-c2c[nH]c3c(N/N=C/c4ccncc4)ncnc23)c1 [GW814408X] 30

====

The compounds listed here are annotated with their Percent Control.
Tested on: WNK2
experimentalConditions: Compound Concentration (nM):1000
Only the number, expressed in %, is required.

Before answering, review these 3 worked examples.
| compound | measurementTarget | measValue |
| --- | --- | --- |
| COc1ccc2[nH]c3c4[nH]c5ccc(OC)cc5c4c4c(c3c2c1)C(=O)NC4=O [GW296115X] | WNK2 | 66 |
| C/C(Nc1ccc(S(N)(=O)=O)cc1)=C1/C(=O)Nc2ccccc21 [GW335962X] | WNK2 | 93 |
| CN1CCN(C(=O)c2ccc(NC(=O)Nc3ccc(N(C)c4ccnc(Nc5ccc(CS(C)(=O)=O)cc5)n4)cc3)cc2)CC1.Cl [GW830263A] | WNK2 | 67 |

Query compound follows.
Give its Percent Control value. Item: Cl.O=C(O[C@H]1CN[C@H](C#Cc2cc3ncnc(Nc4ccc5c(cnn5Cc5ccccc5)c4)c3s2)C1)N1CCOCC1 [GSK200398A] 94

====

Test system: PLK4
experimentalConditions: Compound Concentration (nM):1000
testReadout: Percent Control (%)
Give the value in % but do not write % after it.

| compound | valueUnits | Percent Control |
| --- | --- | --- |
| CN1CCN(C(=O)c2ccc(NC(=O)Nc3ccc(N(C)c4ccnc(Nc5ccc(CS(C)(=O)=O)cc5)n4)cc3)cc2)CC1.Cl [GW830263A] | % | 2.7 |
| Cl.c1ccc(Cc2nc3ccc(Nc4ncnc5ccccc45)cc3[nH]2)cc1 [GR269666A] | % | 100 |
| COC(=O)Nc1nc2ccc(Oc3ccc(NC(=O)Nc4cc(C(F)(F)F)ccc4F)cc3)cc2s1.Cl [GW693917A] | % | 66 |
| C/C(Nc1ccc(S(N)(=O)=O)cc1)=C1/C(=O)Nc2ccccc21 [GW335962X] | % | 74 |
| COc1cc(C=NNc2ncnc3c2cnn3-c2ccccc2)ccc1O [GW513184X] | % | 77 |

For the compound shown here, NS(=O)(=O)c1ccc(N/N=C2\C(=O)Nc3ccc(C(=O)NCCc4c[nH]cn4)cc32)cc1 [GW300660X] , give the reported Percent Control. 81

Moving on to the next compound: COc1cc2ncn(-c3cc(O[C@H](C)c4ccccc4Cl)c(C(N)=O)s3)c2cc1OC [GSK237701A] 30

====

System: PFPK5(P.falciparum)
Construct: gene MAL13P1.279
experimentalConditions: Compound Concentration (nM):1000
testReadout: Percent Control (%)
Please reply with the bare figure in % and do not write the unit itself.

Recorded Percent Control, per entry:
| compound | measurementTarget | Percent Control (%) |
| --- | --- | --- |
| CN(C)c1cc2c(Nc3ccc4c(cnn4Cc4ccccc4)c3)ncnc2cn1 [GW282974X] | PFPK5(P.falciparum) | 94 |
| COc1ccc(COc2ccc(Cc3cnc(N)nc3N)cc2OC)cc1 [GW632580X] | PFPK5(P.falciparum) | 71 |
| Cl.O=C(O[C@H]1CN[C@H](C#Cc2cc3ncnc(Nc4ccc5c(cnn5Cc5ccccc5)c4)c3s2)C1)N1CCOCC1 [GSK200398A] | PFPK5(P.falciparum) | 100 |

Which Percent Control is reported for this compound? COc1cc2ncnc(Nc3ccc4c(cnn4Cc4ccccc4)c3)c2cc1OC.Cl [GW282449A] 100

Another compound to look at: COc1cc(/C=N/Nc2ncnc3[nH]ncc23)ccc1O [GW578748X] 100

And Cc1cc(O)cc(C)c1/C=C/c1cncc(C(N)=O)c1 [GW435821X] ? 100

Another: COc1ccc2[nH]c3c4[nH]c5ccc(OC)cc5c4c4c(c3c2c1)C(=O)NC4=O [GW296115X] 82

Can you handle COc1cccc(-c2c[nH]c3c(N/N=C/c4ccncc4)ncnc23)c1 [GW814408X] next? 97

Field entry: COc1ccccc1-c1cc(/C=C2\C(=O)Nc3ncc(Br)cc32)cc(Br)c1O [GW442130X] 100
